- Test system: HIV
- Type: cell-based
- EXPERIMENTAL CONDITIONS: EC50 in the presence of human serum (25%) versus without human serum, MT-4 cells
The entries below are paired with their reported Potency shift value.
Write no unit; give the number alone.

-- ask State its Potency shift value on HIV: COc1cnc(N2CCn3c(C)cc4c(-c5ccc(C)cc5)c([C@H](OC(C)(C)C)C(=O)O)c(Cl)c2c43)nc1 [Compound I-226]
-- reply 26

-- ask Same lookup for Cc1ccc(-c2c([C@H](OC(C)(C)C)C(=O)O)c(C)c3c4c2cc(C)n4CCN3CCO)cc1 [Compound I-021] , please.
-- reply 5.4

-- ask Entry to check: Cc1c([C@H](OC(C)(C)C)C(=O)O)c(-c2ccc(Cl)cc2)c2cc(C)n3c2c1N(c1ncc2ccccc2n1)CC3 [Compound I-157]
-- reply 12

-- ask Same lookup for Cc1c([C@H](OC(C)(C)C)C(=O)O)c(-c2ccc(Cl)cc2)c2cc(C)n3c2c1N(c1ncc(COCCN(C)C)cn1)CC3 [Compound I-315] , please.
-- reply 3.9

-- ask Continue with Cc1c([C@H](OC(C)(C)C)C(=O)O)c(-c2ccc(Cl)cc2)c2cc(C)n3c2c1N(S(C)(=O)=O)[C@@H](CC(F)F)C3 [Compound I-041]
-- reply 4.1

-- ask And then Cc1ccc(-c2c([C@H](OC(C)(C)C)C(=O)O)c(C)c3c4c2cc(C)n4CCN3c2cccc(F)n2)cc1 [Compound I-286] , what is it?
-- reply 14

###

- Tested on: HIV
- Format: cell-based
- EXPERIMENTAL CONDITIONS: EC50 in the presence of human serum (25%) versus without human serum, MT-4 cells
Please use satisfied whenever Potency shift value is not below 9, and not satisfied whenever it is.

[[record]]
structure_notation = "Cc1c([C@H](OC(C)(C)C)C(=O)O)c(-c2ccc(Cl)cc2)c2cc(C)n3c2c1N(C(N)=O)CC3"
cat = "not satisfied"

[[record]]
structure_notation = "COCc1cnc(N2CCn3c(C)cc4c(-c5ccc(Cl)cc5)c([C@H](OC(C)(C)C)C(=O)O)c(C)c2c43)nc1"
cat = "satisfied"

[[record]]
structure_notation = "Cc1c([C@H](OC(C)(C)C)C(=O)O)c(-c2ccc(Cl)cc2)c2cc(C)n3c2c1N(S(=O)(=O)CC[Si](C)(C)C)CC3"
cat = "satisfied"

[[record]]
structure_notation = "CCCCO[C@H](C(=O)O)c1c(C)c2c3c(cc(C)n3CCN2c2ncc(OC)cn2)c1-c1ccc(Cl)cc1"
cat = "not satisfied"

[[record]]
structure_notation = "Cc1c([C@H](OC(C)(C)C)C(=O)O)c(-c2ccc(Cl)cc2)c2cc(C)n3c2c1NC(=O)C3"
cat = "not satisfied"


Now consider the entry below.
-- ask Confirm if Potency shift value reported for the compound `Cc1ccc(-c2c([C@H](OC(C)(C)C)C(=O)O)c(C)c3c4c2cc(C)n4CCN3c2ccc3ncccc3n2)cc1` is 9 or above.
-- reply satisfied

###

- System: HIV
- Format: cell-based
- EXPERIMENTAL CONDITIONS: EC50 in the presence of human serum (25%) versus without human serum, MT-4 cells
- Description: To confirm the influence of human serum on anti-HIV activity as necessary, human serum was added and determined EC50 in this condition. […] The EC50 in the presence of human serum was calculated in the same manner as in Test Example 1 and the ratio of EC50 in the presence of human serum and EC50 in the absence of human serum was calculated as the potency shift value. […]
RESULT TYPE: Potency shift value
Please state the value as a number alone, without comment.

[[record]]
structure_notation = "COc1cnc(N2c3c(C)c([C@H](OC(C)(C)C)C(=O)O)c(-c4ccc(C)cc4)c4cc(C)n(c34)C[C@H]2C)nc1"
quantitative_result = 8.4


-- ask Could you tell me which Potency shift value is on file for `Cc1ccc(-c2c([C@H](OC(C)(C)C)C(=O)O)c(C)c3c4c2cc(C)n4CCN3S(C)(=O)=O)cc1` ?
-- reply 14

-- ask Now the compound `Cc1ccc(-c2c([C@H](OC(C)(C)C)C(=O)O)c(C)c3c4c2cc(C)n4CCN3CC(F)F)cc1`
-- reply 23
